Below, each entry is listed with its recorded AUCINF.
# assayComment: Example 6: Pharmacokinetic characterisation after s.c. administration
# Type: in vivo, rat (Sprague Dawley or Wistar)
# assaySetup: rat, 70 nmol/kg, plasma
# unit: µM·h | format: bare number

# example entries with known answers
substance	resultUnits	AUCINF
H-NIDMRC(1)SASVEC(2)KQKC(3)LKAIGSIFGKC(1)MNKKC(2)KC(3)YPR-OH [Peptide 9]	µM·h	0.0983
H-P[Nle]E[Nle]RC(1)SASVEC(2)AQKC(3)LAAIGSIFGKC(1)[Nle]NKKC(2)KC(3)YPR-OH [Peptide 107]	µM·h	0.1766

Continue with the next substance.
Request: // lookup AUCINF for H-PIE[Nle]RC(1)SASVEC(2)KQKC(3)LAAIGSIFGKC(1)[Nle]NKKC(2)KC(3)YPR-OH [Peptide 105]
Response: 0.1318
